# testDetails: Topical administration (eye drops) of formulation #340, rapamycin levels in blood, cornea, retina choroid, sclera and vitreous (Tables 3-6)
# Format: in vivo
# details: rabbit, sclera, 2 drops (40 μl per drop) per eye, both eyes, formulation #340 topical, Group III (two drops once a day on both eyes for 6 days), day 8, n = 2, read-out: Rapamycin level, sclera
metricName: concentration at 8 day
Hi, when you answer, please include the unit after the number. Thanks!

Inquiry: Identify measured concentration at 8 day corresponding to `CO[C@H]1C[C@@H]2CC[C@@H](C)[C@@](O)(O2)C(=O)C(=O)N2CCCC[C@H]2C(=O)O[C@H]([C@H](C)C[C@@H]2CC[C@@H](O)[C@H](OC)C2)CC(=O)[C@H](C)/C=C(\C)[C@@H](O)[C@@H](OC)C(=O)[C@H](C)C[C@H](C)/C=C/C=C/C=C/1C`
Reply text: 895 ng/g

* * *

# testDetails: Topical administration (eye drops) of formulation #340, rapamycin levels in blood, cornea, retina choroid, sclera and vitreous (Tables 3-6)
# Assay type: in vivo
# details: rabbit, vitreous, 2 drops (40 μl per drop) per eye, both eyes, twice a day, formulation #340 topical, Group I (two drops twice a day on both eyes, one time), day 2, n = 2, read-out: Rapamycin level, vitreous
metricName: concentration at 2 day (ng/mL)
Quick reminder: number only, in ng/mL, skip the unit.

Inquiry: Identify measured concentration at 2 day corresponding to `CO[C@H]1C[C@@H]2CC[C@@H](C)[C@@](O)(O2)C(=O)C(=O)N2CCCC[C@H]2C(=O)O[C@H]([C@H](C)C[C@@H]2CC[C@@H](O)[C@H](OC)C2)CC(=O)[C@H](C)/C=C(\C)[C@@H](O)[C@@H](OC)C(=O)[C@H](C)C[C@H](C)/C=C/C=C/C=C/1C`
Reply text: 5.41

* * *

# testDetails: Topical administration (eye drops) of formulation #340, rapamycin levels in blood, cornea, retina choroid, sclera and vitreous (Tables 3-6)
# Format: in vivo
# details: rabbit, sclera, 2 drops (40 μl per drop) on one eye (right eye, OD), formulation #340 topical, Group II (two drops once a day on one eye, one time), OD, day 3, n = 1, read-out: Rapamycin level, sclera
metricName: concentration at 3 day
Hi, when you answer, please include the unit after the number. Thanks!

Inquiry: Identify measured concentration at 3 day corresponding to `CO[C@H]1C[C@@H]2CC[C@@H](C)[C@@](O)(O2)C(=O)C(=O)N2CCCC[C@H]2C(=O)O[C@H]([C@H](C)C[C@@H]2CC[C@@H](O)[C@H](OC)C2)CC(=O)[C@H](C)/C=C(\C)[C@@H](O)[C@@H](OC)C(=O)[C@H](C)C[C@H](C)/C=C/C=C/C=C/1C`
Reply text: 541 ng/g

* * *

# testDetails: Topical administration (eye drops) of formulation #340, rapamycin levels in blood, cornea, retina choroid, sclera and vitreous (Tables 3-6)
# Type: in vivo
# details: rabbit, sclera, 2 drops (40 μl per drop) on one eye (right eye, OD), formulation #340 topical, Group II (two drops once a day on one eye, one time), OS, day 3, n = 1, read-out: Rapamycin level, sclera
metricName: concentration at 3 day
Hi, when you answer, please include the unit after the number. Thanks!

Inquiry: Identify measured concentration at 3 day corresponding to `CO[C@H]1C[C@@H]2CC[C@@H](C)[C@@](O)(O2)C(=O)C(=O)N2CCCC[C@H]2C(=O)O[C@H]([C@H](C)C[C@@H]2CC[C@@H](O)[C@H](OC)C2)CC(=O)[C@H](C)/C=C(\C)[C@@H](O)[C@@H](OC)C(=O)[C@H](C)C[C@H](C)/C=C/C=C/C=C/1C`
Reply text: 104 ng/g

* * *

# testDetails: Topical administration (eye drops) of formulation #340, rapamycin levels in blood, cornea, retina choroid, sclera and vitreous (Tables 3-6)
# Assay type: in vivo
# details: rabbit, vitreous, 2 drops (40 μl per drop) per eye, both eyes, formulation #340 topical, Group III (two drops once a day on both eyes for 6 days), day 8, n = 2, read-out: Rapamycin level, vitreous
metricName: concentration at 8 day (ng/mL)
Quick reminder: number only, in ng/mL, skip the unit.

Inquiry: Identify measured concentration at 8 day corresponding to `CO[C@H]1C[C@@H]2CC[C@@H](C)[C@@](O)(O2)C(=O)C(=O)N2CCCC[C@H]2C(=O)O[C@H]([C@H](C)C[C@@H]2CC[C@@H](O)[C@H](OC)C2)CC(=O)[C@H](C)/C=C(\C)[C@@H](O)[C@@H](OC)C(=O)[C@H](C)C[C@H](C)/C=C/C=C/C=C/1C`
Reply text: 19.7

* * *

# testDetails: Topical administration (eye drops) of formulation #340, rapamycin levels in blood, cornea, retina choroid, sclera and vitreous (Tables 3-6)
# Type: in vivo
# details: rabbit, vitreous, 2 drops (40 μl per drop) on one eye (right eye, OD), formulation #340 topical, Group II (two drops once a day on one eye, one time), OS, day 1, n = 1, read-out: Rapamycin level, vitreous
metricName: concentration at 1 day (ng/mL)
Quick reminder: number only, in ng/mL, skip the unit.

Inquiry: Identify measured concentration at 1 day corresponding to `CO[C@H]1C[C@@H]2CC[C@@H](C)[C@@](O)(O2)C(=O)C(=O)N2CCCC[C@H]2C(=O)O[C@H]([C@H](C)C[C@@H]2CC[C@@H](O)[C@H](OC)C2)CC(=O)[C@H](C)/C=C(\C)[C@@H](O)[C@@H](OC)C(=O)[C@H](C)C[C@H](C)/C=C/C=C/C=C/1C`
Reply text: 1

* * *

# testDetails: Topical administration (eye drops) of formulation #340, rapamycin levels in blood, cornea, retina choroid, sclera and vitreous (Tables 3-6)
# Type: in vivo
# details: rabbit, vitreous, 2 drops (40 μl per drop) per eye, both eyes, twice a day, formulation #340 topical, Group I (two drops twice a day on both eyes, one time), day 1, n = 2, read-out: Rapamycin level, vitreous
metricName: concentration at 1 day (ng/mL)
Quick reminder: number only, in ng/mL, skip the unit.

Inquiry: Identify measured concentration at 1 day corresponding to CO[C@H]1C[C@@H]2CC[C@@H](C)[C@@](O)(O2)C(=O)C(=O)N2CCCC[C@H]2C(=O)O[C@H]([C@H](C)C[C@@H]2CC[C@@H](O)[C@H](OC)C2)CC(=O)[C@H](C)/C=C(\C)[C@@H](O)[C@@H](OC)C(=O)[C@H](C)C[C@H](C)/C=C/C=C/C=C/1C [Rapamycin, rapamycin]
Reply text: 1.24
